I'd appreciate it if you could supply GI50 values for the items below.
system: CAKI-1; assay: NCI tumour cell line growth inhibition, 48 h
Calls of active or inactive are those of the source. No stated cut-off is given here; in the data, active = GI50 up to about 1.1 µM and inactive = higher.

Which GI50 is listed for CN(C)c1cccc2c(S(=O)(=O)NCCCNCCN)cccc12 ? > 100 µM (inactive)

Returns the measured GI50 for the input molecule. Input: Cn1c(=O)c2nc(/N=N/Nc3nncs3)[nH]c2n(C)c1=O > 100 µM (inactive)

Requested field: GI50. Item: COc1ccc(C(c2ccccc2)N2C(=O)CCC2C(=O)O)cc1OC (stereo not given) > 100 µM (inactive)

// GI50 lookup, key: CC[C@H](C)C(=O)O[C@H]1C[C@@H](C)C=C2C=C[C@H](C)[C@H](CC[C@@H]3C[C@@H](O)CC(=O)O3)[C@H]21 1.17 µM (inactive)

Fill in the blank: the reported GI50 of O=C(/C=C/c1ccco1)c1cccc(C(=O)/C=C/c2ccco2)n1 is ____. 25 µM (inactive)

Can you share its GI50? I mean this molecule: CC1=NN(c2nc(N)nc(NS(=O)(=O)c3cc(C)c(Cl)cc3S)n2)C(C)(C)C1 > 10 µM (inactive)

Record request: GI50 value, item O=c1nc(N2CCCC2)nc(N2CCCC2)s1 97.9 µM (inactive)

Recorded GI50 of CC(=O)OCC(Br)C1(C)CCC(C(C)(C)Br)O1 (stereo not given) , please. > 100 µM (inactive)

GI50 lookup needed for O=NN(CCCl)C(=O)NC1CCC(=O)NC1=O (stereo not given) , thanks. 270 µM (inactive)

Fill in the blank: the reported GI50 of CC1(C)Cc2c(cnn2-c2ccc(C(F)(F)F)cc2)-c2[nH]c(-c3ccc(O)cc3)nc21 is ____. 17.4 µM (inactive)

If you can, please state the reported GI50 value of Cc1cc(S(=O)(=O)Nc2nc(N)n(C)n2)c(S)cc1Cl . > 10 µM (inactive)

For the molecule Cc1ccc2c(c1)C(C(=O)N[C@@H]1C(=O)N3[C@@H]1SC(C)(C)[C@@H]3C(=O)O)OCCC2 (stereo not given in full) , what GI50 is on record? > 100 µM (inactive)

For the molecule shown here, CCCCCC/C=C\CCCCCCCCCc1cccc(O)c1C(=O)O , give the reported GI50. > 100 µM (inactive)

// lookup GI50 for O=c1cc(O)ccn1C1C=C(CO)C(O)C1O (stereo not given) > 625 µM (inactive)

Quick check: GI50 of CCCCCC(/C=C/[C@@H]1[C@@H](C(O)CCCCCC(=O)OC)C(=O)C[C@H]1O[Si](C)(C)C(C)(C)C)OCOCCOC (stereo not given in full) ? 17.2 µM (inactive)

Value lookup for GI50; key = COc1ccccc1N1C(=O)/C(=C\c2cccc(Oc3ccccc3)c2)S(=O)(=O)C1c1ccccc1 (stereo not given) > 100 µM (inactive)

Could you share which GI50 value was measured for CC(=O)O[C@H]1C(=O)[C@@]2(C)C(C(OC(=O)c3ccccc3)[C@]3(O)CC(OC(=O)C(O)C(NC(=O)c4ccc(C(F)(F)F)cc4)c4ccccc4)C(C)=C1C3(C)C)[C@]1(OC(C)=O)CO[C@@H]1C[C@@H]2O (stereo not given in full) ? 0.076 µM (active)

Which GI50 reading was recorded for the molecule CCC(C)SC1SCC2C(=O)N(C)C3(CC3C)C(=O)OCC(NC(=O)c3nc4ccccc4cc3O)C(=O)NC(C)C(=O)N(C)C1C(=O)N(C)C1(CC1C)C(=O)OCC(NC(=O)c1nc3ccccc3cc1O)C(=O)NC(C)C(=O)N2C (stereo not given) ? 0.01 µM (active)

Form field: reported GI50 of OCC1OC(OCC(O)C(O)C(O)C(/C=N/Nc2ccccc2)=N/Nc2ccccc2)C(O)C(O)C1O (stereo not given) 34.4 µM (inactive)

Item O=S1(=O)C(c2ccccc2)C(N2CCCCC2)C1C1CC2c3ccccc3C1c1ccccc12 (stereo not given) has what recorded GI50? > 100 µM (inactive)

Need GI50, item COc1ccc2[nH]c3nnc(N)c-3nc2c1 5.66 µM (inactive)

May I ask what GI50 has been recorded for CN1C(=O)C(Cl)(C(Cl)(Cl)S(=O)(=O)O)C(=O)c2ccccc21.c1ccncc1 (stereo not given) ? > 100 µM (inactive)

Endpoint output: GI50 of C=CCc1c(O)c2nsnc2c2nsnc12 . Value? > 10 µM (inactive)

Which GI50 value is on record for COC(=O)c1ccccc1/N=C/c1ccc(N(CCC#N)S(=O)(=O)c2ccccc2)cc1 ? > 100 µM (inactive)

Please give the measured GI50 for this molecule: COc1ccc(OC)c(CCc2ccccc2CC(=O)O)c1 > 100 µM (inactive)

Requested read-out: GI50. Entry: Cc1ccc2nc3cc(C)c(=O)cc-3sc2c1 39.7 µM (inactive)

Return reported GI50; argument: CS(=O)(=O)c1ccc(COP(N)(=O)N(CCCl)CCCl)cc1 (stereo not given) > 100 µM (inactive)

Value lookup for GI50; key = NCC#CCNCCCN1CC1 > 100 µM (inactive)

Look up GI50 for this molecule: CC(=O)n1nc(-c2[nH]c(C)c(-c3nn(C(C)=O)c(=S)o3)c2C)oc1=S > 100 µM (inactive)

// returns reported GI50 for input COC(=O)C1C(C(=O)OC)C1(Br)CBr (stereo not given) 17.8 µM (inactive)

Data origin, for the record: ChEMBL document CHEMBL1201862
